# TARGET_OF_ASSAY: Thymidylate synthase (Homo sapiens, UniProt P04818)
# Sequence (P04818 whole entry): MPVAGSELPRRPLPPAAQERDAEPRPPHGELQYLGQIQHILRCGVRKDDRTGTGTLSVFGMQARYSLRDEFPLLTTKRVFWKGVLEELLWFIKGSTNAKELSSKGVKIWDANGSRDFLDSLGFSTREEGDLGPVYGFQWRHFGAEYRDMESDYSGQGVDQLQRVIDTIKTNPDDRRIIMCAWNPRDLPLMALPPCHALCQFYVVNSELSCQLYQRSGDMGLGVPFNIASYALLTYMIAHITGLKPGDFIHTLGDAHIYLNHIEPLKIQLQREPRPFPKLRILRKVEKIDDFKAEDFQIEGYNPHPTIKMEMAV
# EXPERIMENTAL_DETAILS: Inhibition of purified human thymidylate synthase isolated from an Escherichia coli harboring thy A gene cloned from SV40 transformed human fibroblast cells
# Assay type: cell-free
MEASURED_ENDPOINT: pKi
FYI, pKi means -log10 of a concentration in mol per litre.

I'd like to know its pKi. The compound in question is "Cc1nc2ccc3ccc(S(=O)(=O)Nc4ccc(C(=O)N[C@@H](CCC(=O)O)C(=O)O)cc4)cc3c2c(=O)[nH]1" 8.26

###

# Tested on: SW480
# EXPERIMENTAL_DETAILS: Cell culture cytotoxicity of SW480 colon adenocarcinoma cells
# Format: functional, Homo sapiens
Each entry below carries its reported CCCT.
Numbers only here, please. The scale is µM.

Example molecules with recorded CCCT:
ITEM_SMILES: Nc1nc(O)c2c(n1)CCc1ccc(S(=O)(=O)Nc3ccc(C(=O)N[C@@H](CCC(=O)O)C(=O)O)cc3)cc1-2
UNIT_OF_MEASURE: µM
TEST_RESULT: 7.9
--
ITEM_SMILES: Cc1nc(O)c2c(ccc3ccc(S(=O)(=O)Nc4ccc(C(=O)N[C@@H](CCC(=O)O)C(=O)O)cc4)cc32)n1
UNIT_OF_MEASURE: µM
TEST_RESULT: 2.4

Would you kindly look at the next entry?
I'd like to know its CCCT. The molecule in question is "Cc1nc(O)c2c(n1)CCc1ccc(S(=O)(=O)Nc3ccc(C(=O)N[C@@H](CCC(=O)O)C(=O)O)cc3)cc1-2" 4.1

###

# TARGET_OF_ASSAY: MOLT-4
MEASURED_ENDPOINT: Ki
Just so you know, I need the unit written after the number.

Report Ki for "Cc1nc(O)c2c(ccc3ccc(S(=O)(=O)Nc4ccc(C(=O)N[C@@H](CCC(=O)O)C(=O)O)cc4)cc32)n1" tested on MOLT-4. 4.9 µM

###

Each entry below carries its reported CCCT.
# System: SW480
# EXPERIMENTAL_DETAILS: Cell culture cytotoxicity of SW480 colon adenocarcinoma cells
# Assay type: functional, Homo sapiens

ITEM_SMILES: Cc1nc(O)c2c(ccc3c(S(=O)(=O)Nc4ccc(C(=O)N[C@@H](CCC(=O)O)C(=O)O)cc4)cccc32)n1
CCCT: >100 µM
//
ITEM_SMILES: Cc1nc(O)c2c(n1)CCc1ccc(S(=O)(=O)N(C)c3ccc(C(=O)N[C@@H](CCC(=O)O)C(=O)O)cc3)cc1-2
CCCT: >50 µM
//
ITEM_SMILES: C#CCN(c1ccc(C(=O)N[C@@H](CCC(=O)O)C(=O)O)cc1)S(=O)(=O)c1ccc2c(c1)CCc1nc(N)nc(O)c1-2
CCCT: >50 µM

Would you kindly look at the next entry?
I'd like to know its CCCT. The compound in question is "Nc1nc(O)c2c(n1)CCc1cc(Br)c(S(=O)(=O)Nc3ccc(C(=O)N[C@@H](CCC(=O)O)C(=O)O)cc3)cc1-2" >100 µM
